Some variants, each annotated with its measured protein stability index.
B1: GLTSCR2 (parent)
chain: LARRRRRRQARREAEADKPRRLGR

variants of: B1; assay: protein stability index of a GFP-peptide fusion (GPS, HEK-293T) (PSI 1-6); higher = more stable; details: c terminus: a fixed tail appended;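 further: lentivirally expressed fusions sorted by FACS into six bins by GFP to DsRed ratio, PSI derived from sequencing read proportions per bin multiplied by bin number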
I only need the number, thanks.

L22F	3.87
A16C	4.48

Problem: I have this variant here, A2P , and I need its recorded protein stability index.
Solution: 4.84

Problem: # lookup: protein stability index of A16L
Solution: 3.29

Problem: I am curious: what protein stability index value has been reported for A10K ?
Solution: 4.02

Problem: Which protein stability index is reported for this variant? Q9M
Solution: 3.79

Problem: What value of measured protein stability index is listed for A14Y ?
Solution: 4.6

Problem: Name the recorded protein stability index for L22I .
Solution: 4.7

Problem: May I ask what protein stability index has been recorded for R12H ?
Solution: 4.74

Problem: I am curious: what protein stability index value has been reported for A10N ?
Solution: 4.6

Problem: I am curious: what protein stability index value has been reported for P19Y ?
Solution: 4.26

Problem: Consider the variant shown here: R6Q What is its recorded protein stability index?
Solution: 5.03
